Measured values drawn from PubChem BioAssay (NCI) for this set.

- System: HT29 colon
- Experiment: NCI tumour cell line growth inhibition, 48 h
Known TGI of a selection of molecules

Molecule	Study Target	TGI
O=C(CC(=O)C1=CNc2ccccc2S1)C(=O)Nc1ccc(Cl)cc1	HT29 colon	> 50 µM
O=c1oc(Cl)c(Cl)c2ccccc12	HT29 colon	> 100 µM
Cc1cc(O)c(C2=NN(c3ccc(S(N)(=O)=O)cc3)C(c3ccccc3Cl)C2)cc1Cl (stereo unspecified)	HT29 colon	3.63 µM
Cc1oc2c(C)c3oc(=O)cc(C)c3cc2c1CN1C(=O)C2OCCOCCOCCOCCOCCO[C@H]2C1=O (stereo partly specified)	HT29 colon	> 100 µM
CCOC(=O)C1=NN(c2ccc(C)cc2)C2=CC(C)=NN(C)C(=S)N21	HT29 colon	> 100 µM
COc1ccc(C2CC(C)(O)Oc3cc4c(cc32)OCO4)cc1 (stereo unspecified)	HT29 colon	> 82.6 µM
Cc1ccc(C(CC(=O)c2ccccc2)C2C(=O)NC(=O)NC2=O)cc1 (stereo unspecified)	HT29 colon	> 100 µM
O=C1C(N2CC2)=C(N2CC2)C(=O)C(N2CC2)=C1N1CC1	HT29 colon	15.1 µM
Cc1cccc(N(C(=O)Nc2ccc(Cl)c(Cl)c2)C2=NCC(C)S2)c1 (stereo unspecified)	HT29 colon	> 100 µM
Cc1ccc(SSc2ccc(C)cc2C(=O)O)c(C(=O)O)c1	HT29 colon	> 100 µM
COC(=O)CNS(=O)(=O)c1ccc(-c2c3nc(c(-c4ccc(S(=O)(=O)NCC(=O)OC)cc4)c4ccc([nH]4)c(-c4ccc(S(=O)(=O)NCC(=O)OC)cc4)c4nc(c(-c5ccc(S(=O)(=O)NCC(=O)OC)cc5)c5ccc2[nH]5)C=C4)C=C3)cc1	HT29 colon	> 100 µM
COc1cc(NC(C)CCCN)c2ncccc2c1 (stereo unspecified)	HT29 colon	> 95.4 µM
CC(=O)C(=Cc1ccc(C=C(C(C)=O)C(C)=O)cc1)C(C)=O	HT29 colon	3.05 µM
CCOC(=O)Cn1c(=O)c2nc(SC)sc2n(CC)c1=S	HT29 colon	> 100 µM
Cc1cc(Cl)ccc1Nc1nc(C(F)(F)F)ccc1C(=O)N/N=C/c1ccc(Cl)cc1	HT29 colon	10.4 µM
Cc1nn(-c2ccccc2)c(C)c1/C=N/N=C1\SCC(=O)N1c1ccccc1	HT29 colon	73.9 µM
